Taken from patent US20230158141A1.

assay target: PD-1 (UniProt Q15116 25-167, limits assumed)
Sequence (Q15116 25-167 limits assumed): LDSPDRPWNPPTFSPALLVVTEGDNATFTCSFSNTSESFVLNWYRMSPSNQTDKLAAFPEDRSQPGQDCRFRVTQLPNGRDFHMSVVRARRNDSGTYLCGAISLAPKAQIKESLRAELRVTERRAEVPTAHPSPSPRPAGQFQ
method notes: ELISA, conjugate vs WT antibody
assay endpoint: binding activity (% of WT)

binder	binding activity (% of WT)
anti-PD-1 antibody 1 heavy chain S54C-R4-1 (antibody, human IgG4 S228P, kappa, V domains shown, R4-1 on Cys 54) VH: QVQLVQSGVEVKKPGASVKVSCKASGYTFTNYYMYWVRQAPGQGLEWMGGINPCNGGTNFNEKFKNRVTLTTDSSTTTAYMELKSLQFDDTAVYYCARRDYRFDMGFDYWGQGTTVTVSS VL: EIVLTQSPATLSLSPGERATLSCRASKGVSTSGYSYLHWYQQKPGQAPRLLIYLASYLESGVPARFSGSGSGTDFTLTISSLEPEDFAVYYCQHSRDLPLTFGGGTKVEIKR	104%
anti-PD-1 antibody 1 heavy chain T30C-R4-1 (antibody, human IgG4 S228P, kappa, V domains shown, R4-1 on Cys 30) VH: QVQLVQSGVEVKKPGASVKVSCKASGYTFCNYYMYWVRQAPGQGLEWMGGINPSNGGTNFNEKFKNRVTLTTDSSTTTAYMELKSLQFDDTAVYYCARRDYRFDMGFDYWGQGTTVTVSS VL: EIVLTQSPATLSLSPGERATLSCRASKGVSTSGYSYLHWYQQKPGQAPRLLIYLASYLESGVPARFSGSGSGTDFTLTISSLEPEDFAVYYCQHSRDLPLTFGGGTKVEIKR	91.2%

Okay, now this binder:
Form field: reported binding activity (% of WT) of anti-PD-1 antibody 1 heavy chain T58C-R4-1 (antibody, human IgG4 S228P, kappa, V domains shown, R4-1 on Cys 58) VH: QVQLVQSGVEVKKPGASVKVSCKASGYTFTNYYMYWVRQAPGQGLEWMGGINPSNGGCNFNEKFKNRVTLTTDSSTTTAYMELKSLQFDDTAVYYCARRDYRFDMGFDYWGQGTTVTVSS VL: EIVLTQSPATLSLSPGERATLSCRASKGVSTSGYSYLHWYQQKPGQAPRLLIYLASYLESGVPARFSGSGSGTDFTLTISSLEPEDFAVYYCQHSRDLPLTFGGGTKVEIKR 93.9%
